quantity: melting point

{"compound": "Nc1n[nH]c(NC(=O)c2ccc3ccccc3c2)n1", "valueReported": "192 to 194 °C"}
{"compound": "O=C(NC(Cc1ccccc1)C(=O)O)OCc1ccc(C#Cc2ccccc2)cc1 (stereo not given)", "valueReported": "172 to 173 °C"}

Input "Cc1cc(C)c2c(c1Br)CC=C2" . Output melting point: 34 °C

Value of melting point reported for the compound COc1ccc(C(O)c2ccccc2OC)cn1 (stereo not given) is 83 to 84 °C

CC1(O)CCC2(C)C(CCC3C2CCC2(C)C(c4cc(CO)on4)CCC32)C1 (stereo not given) yielded melting point of 198 to 200 °C

* * *

Parameter melting point: see the listing below.

{"compound": "C=CCc1c(OCCCSCc2nnn[nH]2)ccc(C(C)=O)c1O", "valueReported": "129 to 132 °C"}
{"compound": "O=C(CCC(=O)N[C@@H]1CCc2ccccc21)N[C@@H]1CCc2ccccc21", "valueReported": "266 to 269 °C"}

What the record says about "Cn1c(=O)nc(-c2ccccc2)c2cc(Cl)ccc21" : melting point is 224 °C

Entry under test: "COc1cc(C(C)=O)ccc1OCCN1CCN(c2nsc3ccccc23)CC1" . Its melting point was 98 to 100 °C

The reported value for "C=CCSC(=NC(=O)OC)NC(=O)Nc1ccc(C)cc1" in terms of melting point is 103 to 105 °C

For record "O=Cc1c(O)cccc1OCCCCC(=O)O" the listed melting point is 94 °C

Per the records, this compound ( CC(O)c1ccc(C(C)Oc2cncc(C(=O)Nc3ccc(C#N)cc3)c2)cc1 (stereo not given) ) has melting point equal to 179 to 181 °C

* * *

Here the recorded melting point is given for each entry.

{"molecule": "O=C(O)c1cc(Br)cc([N+](=O)[O-])c1NCc1ccccc1Cl", "quantity": "melting point", "valueReported": "159 to 161 °C"}

Reported melting point for "COc1ccc(N2Cc3cnc(Nc4ccccc4)nc3N(C[C@@H](C)O)C2=O)cc1" was 189 to 193 °C

So, "O=C1Nc2ncc(Br)cc2C1(Br)Br" ? Its melting point was 157 to 158 °C

* * *

quantity: melting point

Sample records with melting point:
{"molecule": "Cc1cccc(Nc2cc(Cl)nc(S(C)(=O)=O)n2)c1C", "quantity": "melting point", "valueReported": "140 to 142 °C"}
{"molecule": "CC(C)(C)C(=O)C=C(c1ccc(Cl)cc1)S(=O)(=O)c1ccccc1", "quantity": "melting point", "valueReported": "135 to 136 °C"}
{"molecule": "C[C@H](COS(C)(=O)=O)N1C(=O)c2ccccc2C1=O", "quantity": "melting point", "valueReported": "75 to 77 °C"}
{"molecule": "CC(=O)c1ccc(S(=O)(=O)NCc2ccncc2)cc1", "quantity": "melting point", "valueReported": "162 to 167 °C"}
{"molecule": "COc1ccc(NC(=O)C(=O)N2CCC(Cc3ccc(F)cc3)CC2)cc1", "quantity": "melting point", "valueReported": "105 to 107 °C"}
{"molecule": "CCCCCCCNC(=O)Nc1ccccc1C(=O)NC1CCCNC1 (centres undefined)", "quantity": "melting point", "valueReported": "165 °C"}

Entry "O=C(O)CSCc1cccc(NC(=O)c2cc(-c3ccccc3)oc2C(F)(F)F)c1" ; melting point = 178 to 182 °C

Data point: CCCCCCCCCCCCCCCC(CC)OCC(=O)c1ccccc1 (centres undefined) ; melting point = 50 to 52 °C

Per the records, this molecule ( "CSC(=NS(=O)(=O)c1ccccc1Cl)SC" ) has melting point equal to 119 to 123 °C

Per the records, this molecule ( "CC(=O)Cn1cnc2c1c(=O)n(CC1CC1)c(=O)n2C1CCCC1" ) has melting point equal to 155 °C

// sample "CS(=O)(=O)c1ccc(-n2nccc2-c2ccc(-c3ccco3)cc2)cc1F" , its melting point was 155 to 156 °C

// melting point value for "O=C(O)CCC(=O)c1ccc2c(c1)CNC(=O)N2" : 176 to 180 °C

The recorded melting point for entry "O=C1c2ccccc2C(=O)c2sc(-c3ccc(CO)o3)nc21" equals > 260 °C

melting point reported for this molecule "COc1cc2c(Nc3ccc(Cl)cc3F)ncnc2cc1OCCCC(=O)N1CCN(C)CC1" : 248 to 250 °C
